Measured P. falciparum blood-stage development (parasite DNA level fluorescence), listed per entry for reference.
# System: P. falciparum NF54
# assay_notes: P. falciparum blood stage assay (SYBR Green)
# Type: cell-based, Plasmodium falciparum
# measurement_setup: 5 uM, 72 h; untreated = 129

Check out these entries, answers already filled in.
- compound: "Fc1ccc(-c2ccnc(N3CCNCC3)c2)c(OCCc2cccnc2)c1 [Compound 12l]"
  test_target: "P. falciparum NF54"
  result: 99.67
- compound: "c1cncc(CCOc2cccnc2-c2cccc(N3CCNCC3)c2)c1 [Compound 12g]"
  test_target: "P. falciparum NF54"
  result: 99.89
- compound: "c1cncc(CCOc2ccc3ccccc3c2-c2ccnc(N3CCNCC3)c2)c1 [Compound 30c]"
  test_target: "P. falciparum NF54"
  result: 101.4

Please examine the following record next.
Asked: Bench note: what P. falciparum blood-stage development (parasite DNA level fluorescence) did Cc1n[nH]c(C)c1CCOc1cc(F)ccc1-c1ccnc(N2CCNCC2)c1 [Compound 12q] show?
Given back: 98.36

###

P. falciparum blood-stage development (parasite DNA level fluorescence) by entry:
# Tested on: P. falciparum NF54
# assay_notes: P. falciparum blood stage assay (SYBR Green)
# Format: cell-based, Plasmodium falciparum
# measurement_setup: 10 uM, 72 h; untreated = 129
Note: the reply should be a number with no unit written.

Below: 8 compounds and their reported P. falciparum blood-stage development (parasite DNA level fluorescence).
- compound: "Cc1nn(C)c(C)c1CCOc1cc(F)ccc1-c1cccc(OCCN(C)C)c1 [Compound 26c]"
  recorded_number: 97.66
- compound: "c1cncc(CCOc2ccccc2-c2ccnc(N3CCNCC3)c2)c1 [Compound 12j]"
  recorded_number: 74.22
- compound: "Cc1nn(C)c(C)c1CCOc1ccc2ccccc2c1-c1ccnc(N2CCNCC2)c1 [Compound 30a]"
  recorded_number: 95.74
- compound: "Cc1nn(C)c(C)c1CCOc1cccnc1-c1ccnc(N2CCNCC2)c1 [Compound 12a]"
  recorded_number: 96.27
- compound: "Cc1nn(C)c(C)c1CCOc1cccnc1-c1cccc(N2CCNCC2)c1 [Compound 12b]"
  recorded_number: 105.8
- compound: "Cc1n[nH]c(C)c1CCOc1cc(F)ccc1-c1cccc(OCCN(C)C)c1 [Compound 26i]"
  recorded_number: 85.5
- compound: "Cc1nn(C)c(C)c1CCOc1ccccc1-c1cccc(OCCN(C)C)c1 [Compound 26b]"
  recorded_number: 94.32
- compound: "Cc1nn(C)c(C)c1CCOc1cc(F)ccc1-c1cccc(N2CCNCC2)c1 [Compound 12f]"
  recorded_number: 89.25

Proceeding to the next compound to report its P. falciparum blood-stage development (parasite DNA level fluorescence).
Asked: Reported P. falciparum blood-stage development (parasite DNA level fluorescence), compound Cc1nn(C)c(C)c1CCOc1ccccc1-c1cccc(N2CCNCC2)c1 [Compound 12d] : ____
Given back: 92.65

###

Listed here are compounds together with their documented P. falciparum blood-stage development (parasite DNA level fluorescence).
# System: P. falciparum NF54
# assay_notes: P. falciparum blood stage assay (SYBR Green)
# Format: cell-based, Plasmodium falciparum
# measurement_setup: 10 uM, 72 h; untreated = 129

Reference set, count: 3
- compound: "Fc1ccc(-c2ccnc(N3CCNCC3)c2)c(OCCc2cccnc2)c1 [Compound 12l]"
  result: 86.75
- compound: "c1cncc(CCOc2ccc3ccccc3c2-c2ccnc(N3CCNCC3)c2)c1 [Compound 30c]"
  result: 93.99
- compound: "Cc1n[nH]c(C)c1CCOc1cc(F)ccc1-c1ccnc(N2CCNCC2)c1 [Compound 12q]"
  result: 97.95

Now, please, on to the next compound.
Asked: I am curious: what P. falciparum blood-stage development (parasite DNA level fluorescence) value has been reported for c1cncc(CCOc2cccnc2-c2cccc(N3CCNCC3)c2)c1 [Compound 12g] ?
Given back: 87.22

###

# test_target: PvNMT (Plasmodium vivax, UniProt A5K1A2)
# Sequence (A5K1A2 entry or part of it): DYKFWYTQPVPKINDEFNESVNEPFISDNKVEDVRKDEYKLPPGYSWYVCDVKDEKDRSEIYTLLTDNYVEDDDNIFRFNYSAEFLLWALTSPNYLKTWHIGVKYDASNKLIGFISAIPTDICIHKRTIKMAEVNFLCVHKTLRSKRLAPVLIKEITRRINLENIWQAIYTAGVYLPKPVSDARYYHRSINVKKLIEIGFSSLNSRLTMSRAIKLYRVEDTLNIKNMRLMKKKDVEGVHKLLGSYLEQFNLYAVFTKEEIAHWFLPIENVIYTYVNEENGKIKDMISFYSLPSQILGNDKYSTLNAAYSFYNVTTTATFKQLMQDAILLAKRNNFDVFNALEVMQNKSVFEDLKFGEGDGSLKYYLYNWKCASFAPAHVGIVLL
# assay_notes: NMT activity assay (CPM detection of free CoA), PvNMT
# measurement_setup: PvNMT IC50, mean of two or more determinations
// classify: if (IC50 < 3000 nM) satisfied else not satisfied

- molecule: "c1cncc(CCOc2ccccc2-c2ccnc(N3CCNCC3)c2)c1 [Compound 12j]"
  label_class: "satisfied"

Asked: Determine if c1cncc(CCOc2ccccc2-c2cccc(N3CCNCC3)c2)c1 [Compound 12i] shows IC50 strictly lower than 3000 nM.
Given back: satisfied

Asked: Criterion: IC50 strictly below 3000 nM. Is it met by Fc1ccc(-c2cc(N3CCNCC3)ncn2)c(OCCc2cccnc2)c1 [Compound 16d] ?
Given back: not satisfied

Asked: Bench note: check whether Cc1n[nH]c(C)c1CCOc1ccc2ccccc2c1-c1ccnc(N2CCNCC2)c1 [Compound 30e] shows IC50 below 3000 nM
Given back: satisfied

Asked: Determine if Cc1nn(C)c(C)c1CCOc1cccnc1-c1ccnc(N2CCNCC2)c1 [Compound 12a] shows IC50 strictly lower than 3000 nM.
Given back: satisfied

Asked: Item Cc1n[nH]c(C)c1CCOc1cccnc1-c1cccc(N2CCNCC2)c1 [Compound 12m] : IC50 beneath 3000 nM, strictly?
Given back: not satisfied

Asked: Threshold test, IC50 < 3000 nM: CN(C)CCOc1cccc(-c2ncccc2OCCc2cccnc2)c1 [Compound 26d]
Given back: not satisfied

Asked: Consider the molecule Fc1ccc(-c2cccc(N3CCNCC3)c2)c(OCCc2cccnc2)c1 [Compound 12k] . Is its IC50 strictly less than 3000 nM?
Given back: not satisfied

Asked: In the record for Cc1n[nH]c(C)c1CCOc1cc(F)ccc1-c1cccc(OCCN(C)C)c1 [Compound 26i] , is IC50 less than 3000 nM?
Given back: satisfied

Asked: API: query returns whether the molecule falls strictly under 3000 nM in IC50. Query: Cc1nn(C)c(C)c1CCOc1cccnc1-c1cccc(OCCN(C)C)c1 [Compound 26a]
Given back: satisfied

Asked: Below 3000 nM on IC50? Entry c1cncc(CCOc2ccc3ccccc3c2-c2ccnc(N3CCNCC3)c2)c1 [Compound 30c]
Given back: satisfied

###

# System: P. falciparum NF54
# assay_notes: P. falciparum blood stage assay (SYBR Green)
# Format: cell-based, Plasmodium falciparum
# measurement_setup: 0.625 uM, 72 h; untreated = 129
assay_endpoint: P. falciparum blood-stage development (parasite DNA level fluorescence)
Could you keep your reply to the number by itself?

Please review the following examples before continuing.
- molecule: "c1cncc(CCOc2ccc3ccccc3c2-c2ccnc(N3CCNCC3)c2)c1 [Compound 30c]"
  recorded_number: 126.9
- molecule: "Fc1ccc(-c2ccnc(N3CCNCC3)c2)c(OCCc2cccnc2)c1 [Compound 12l]"
  recorded_number: 110.1
- molecule: "c1cncc(CCOc2cccnc2-c2cccc(N3CCNCC3)c2)c1 [Compound 12g]"
  recorded_number: 115

Asked: Can you look up P. falciparum blood-stage development (parasite DNA level fluorescence) on P. falciparum NF54 for Cc1nn(C)c(C)c1CCOc1ccccc1-c1cccc(N2CCNCC2)c1 [Compound 12d] ?
Given back: 123.5

Asked: Lookup: P. falciparum blood-stage development (parasite DNA level fluorescence) / P. falciparum NF54 / Cc1nn(C)c(C)c1CCOc1cccnc1-c1ccnc(N2CCNCC2)c1 [Compound 12a]
Given back: 128.4

Asked: Entry Cc1nn(C)c(C)c1CCOc1ccccc1-c1cccc(OCCN(C)C)c1 [Compound 26b] , system P. falciparum NF54: what P. falciparum blood-stage development (parasite DNA level fluorescence) was measured?
Given back: 123.3

Asked: Recorded P. falciparum blood-stage development (parasite DNA level fluorescence) for Cc1n[nH]c(C)c1CCOc1cc(F)ccc1-c1ccnc(N2CCNCC2)c1 [Compound 12q] with P. falciparum NF54, please?
Given back: 114.1

Asked: Observed P. falciparum blood-stage development (parasite DNA level fluorescence) on P. falciparum NF54 for Cc1n[nH]c(C)c1CCOc1cc(F)ccc1-c1cccc(OCCN(C)C)c1 [Compound 26i] , please.
Given back: 109.6

Asked: // lookup P. falciparum blood-stage development (parasite DNA level fluorescence) | system=P. falciparum NF54 | key= c1cncc(CCOc2ccccc2-c2ccnc(N3CCNCC3)c2)c1 [Compound 12j]
Given back: 106.8

###

This listing pairs molecules with measured IC50.
# test_target: HsNMT1 (Homo sapiens, UniProt P30419)
# Sequence (P30419 whole entry): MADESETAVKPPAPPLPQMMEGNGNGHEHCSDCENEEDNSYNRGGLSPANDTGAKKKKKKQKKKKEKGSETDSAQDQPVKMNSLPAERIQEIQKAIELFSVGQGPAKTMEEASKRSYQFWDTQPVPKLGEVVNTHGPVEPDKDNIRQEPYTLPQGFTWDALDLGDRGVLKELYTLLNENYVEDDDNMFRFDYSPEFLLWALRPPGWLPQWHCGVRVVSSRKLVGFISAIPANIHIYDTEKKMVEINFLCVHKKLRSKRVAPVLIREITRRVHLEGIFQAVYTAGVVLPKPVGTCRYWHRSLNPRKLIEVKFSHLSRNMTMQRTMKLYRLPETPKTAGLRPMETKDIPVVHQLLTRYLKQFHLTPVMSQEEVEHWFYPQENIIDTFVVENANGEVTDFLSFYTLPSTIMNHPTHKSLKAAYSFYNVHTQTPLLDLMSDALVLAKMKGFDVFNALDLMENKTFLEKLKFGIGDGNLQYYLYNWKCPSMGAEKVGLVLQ
# assay_notes: NMT activity assay (CPM detection of free CoA), HsNMT
Lab book: enter the figure in µM, no units written.

Asked: API: value(readout=IC50, system=HsNMT1 (Homo sapiens, UniProt P30419)) for record c1cncc(CCOc2cccnc2-c2cccc(N3CCNCC3)c2)c1 [Compound 12g]
Given back: 15.9

Asked: Form field: IC50 recorded for c1cncc(CCOc2ccccc2-c2ccnc(N3CCNCC3)c2)c1 [Compound 12j] with HsNMT1 (Homo sapiens, UniProt P30419) (enter value)
Given back: 27.4

Asked: Provide value of IC50 for this record tested with HsNMT1 (Homo sapiens, UniProt P30419): Cc1nn(C)c(C)c1CCOc1cc(F)ccc1-c1cccc(OCCN(C)C)c1 [Compound 26c]
Given back: 4.79

Asked: Lab note: need IC50 for Cc1nn(C)c(C)c1CCOc1cccnc1-c1cccc(N2CCNCC2)c1 [Compound 12b] on HsNMT1 (Homo sapiens, UniProt P30419), anyone have it?
Given back: 20.8

Asked: Which measured IC50 belongs to Cc1nn(C)c(C)c1CCOc1ccccc1-c1cccc(N2CCNCC2)c1 [Compound 12d] , tested on HsNMT1 (Homo sapiens, UniProt P30419)?
Given back: 7.44

Provenance of the data: paper PMC10480161
